Catalogue of pIC50 values
assay target: C-terminal GST-tagged, recombinant, human IGF-1R, amino acids 954-1367 (Homo sapiens, UniProt P08069)
Construct: human IGF-1R, amino acids 954-1367 expressed by baculovirus in Sf21 cells; GST (C); purchased Cell Signaling Technology; host or cells: baculovirus in Sf21 cells
Sequence (P08069 954-1367): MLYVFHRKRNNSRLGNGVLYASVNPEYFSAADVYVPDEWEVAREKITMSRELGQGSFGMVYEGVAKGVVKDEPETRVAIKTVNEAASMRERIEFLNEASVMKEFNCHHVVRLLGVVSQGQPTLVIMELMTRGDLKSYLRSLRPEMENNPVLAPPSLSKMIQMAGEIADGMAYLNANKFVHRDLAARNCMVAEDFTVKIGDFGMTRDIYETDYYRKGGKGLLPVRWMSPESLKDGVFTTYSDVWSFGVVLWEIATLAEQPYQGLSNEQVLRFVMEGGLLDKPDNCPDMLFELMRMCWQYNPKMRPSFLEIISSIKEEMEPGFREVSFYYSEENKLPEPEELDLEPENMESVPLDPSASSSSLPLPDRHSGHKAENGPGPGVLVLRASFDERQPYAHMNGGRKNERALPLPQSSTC
protocol description: IGF-1R homogenous time-resolved fluorescence (HTRF) in vitro kinase assay
Type: biochemical
assay conditions: IGF-1R kinase, ATP 50 μM final, biotinylated peptide substrate 0.5 μM, 60 minutes at room temperature
pIC50: −log10 of the molar value.

smiles repr	pIC50
c1ccc(Nc2nccc(-c3c(-c4ccc5nc(Nc6ccccc6)[nH]c5c4)nc4ccccn34)n2)cc1	< 6.30
OCCn1cc(Nc2nccc(-c3c(-c4ccc5[nH]c(Cc6ccccc6)nc5c4)nc4ccccn34)n2)cn1	7.30 to 8.00
COc1cc(N(C)C)ccc1Nc1nccc(-c2c(-c3ccc4nc(Cc5ccccc5)[nH]c4c3)nc3sccn23)n1	7.30 to 8.00
CN(C)Cc1ccc(Nc2nccc(-c3c(-c4ccc5nc(Cc6ccccc6)[nH]c5c4)nc4sccn34)n2)cc1	> 8.00
CN(C)Cc1ccc(Nc2nccc(-c3c(-c4ccc5nc(Cc6ccccc6C(F)(F)F)[nH]c5c4)nc4sccn34)n2)cc1	7.30 to 8.00
CCn1cc(-c2ccnc(Nc3cccc(CN(C)C)c3)n2)c(-c2ccc3[nH]c(Cc4ccccc4)nc3c2)n1	7.30 to 8.00
CN(C)S(=O)(=O)c1cccc(Nc2nccc(-c3c(-c4ccc5nc(Cc6ccccc6)[nH]c5c4)nc4ccccn34)n2)c1	6.30 to 7.00
CN(C)CCc1cccc(Nc2nccc(-c3c(-c4ccc5[nH]c(Cc6ccccc6C(F)(F)F)nc5c4)nc4ccccn34)n2)c1	> 8.00
COc1cc(N(C)CCO)ccc1Nc1nccc(-c2c(-c3ccc4nc(Cc5ccccc5)[nH]c4c3)nc3ccccn23)n1	7.30 to 8.00
COc1cc(N2CCOCC2)ccc1Nc1nccc(-c2c(-c3ccc4nc(-c5ccccc5)[nH]c4c3)nc3ccccn23)n1	7.30 to 8.00
CCn1cc(-c2ccnc(Nc3ccc(N4CCC(N(C)C)CC4)cc3OC)n2)c(-c2ccc3[nH]c(Cc4ccccc4Cl)nc3c2)n1	7.00 to 7.29
CCn1cc(-c2ccnc(Nc3ccc(N4CCC(N(C)C)CC4)cc3OC)n2)c(-c2ccc3[nH]c(Cc4ccccc4OC)nc3c2)n1	7.00 to 7.29
COc1ccccc1Cc1nc2cc(-c3nc4ccccn4c3-c3ccnc(Nc4cccc(CCN(C)C)c4)n3)ccc2[nH]1	> 8.00
c1ccc(Cc2nc3ccc(-c4nc5ccccn5c4-c4ccnc(Nc5cc(C6CC6)n[nH]5)n4)cc3[nH]2)cc1	7.30 to 8.00
COc1ccccc1Cc1nc2ccc(-c3nc4ccccn4c3-c3ccnc(Nc4ccc(N5CCOCC5)cc4OC)n3)cc2[nH]1	7.00 to 7.29
Fc1ccc(Nc2nccc(-c3c(-c4ccc5[nH]c(Cc6ccccc6)nc5c4)nc4ccccn34)n2)cc1	7.00 to 7.29
COc1ccccc1Cc1nc2ccc(-c3nc4sccn4c3-c3ccnc(Nc4ccc(N5CCC(N(C)C)CC5)cc4OC)n3)cc2[nH]1	> 8.00
COc1ccccc1Cc1nc2ccc(-c3nc4sccn4c3-c3ccnc(Nc4cccc(CCN(C)C)c4)n3)cc2[nH]1	> 8.00
COc1cc(N2CCC(N(C)C)CC2)ccc1Nc1nccc(-c2c(-c3ccc4nc(Cc5ccccc5C)[nH]c4c3)nc3sccn23)n1	> 8.00
O=C1CCCN1c1cccc(Nc2nccc(-c3c(-c4ccc5[nH]c(Cc6ccccc6)nc5c4)nc4ccccn34)n2)c1	7.30 to 8.00
CN(C)CCc1cccc(Nc2nccc(-c3c(-c4ccc5nc(Nc6ccccc6)[nH]c5c4)nc4ccccn34)n2)c1	> 8.00
O=C1CCCN1c1cccc(Nc2nccc(-c3c[nH]nc3-c3ccc4[nH]c(Cc5ccccc5Cl)nc4c3)n2)c1	6.30 to 7.00
Fc1ccc(Nc2nccc(-c3c(-c4ccc5nc(-c6ccccc6)[nH]c5c4)nc4ccccn34)n2)c(F)c1	< 6.30
CCn1cc(-c2ccnc(Nc3ccc(N4CCC(N(C)C)CC4)cc3OC)n2)c(-c2ccc3[nH]c(Cc4ccccc4)nc3c2)n1	7.30 to 8.00
c1ccc(Cc2nc3cc(-c4nc5ccccn5c4-c4ccnc(Nc5ccccc5)n4)ccc3[nH]2)cc1	7.30 to 8.00
